- measurement parameters: rat, in vivo, sc, 50 mg/kg
e = 2'-O-(2-methoxyethyl) (MOE); d = 2'-deoxy (DNA)
Lab note: anything with hemoglobin at or over 6 g/dL counts as TRUE; the rest go in FALSE.

| substance | label |
| --- | --- |
| ISIS 416892: 3-14-3 MOE gapmer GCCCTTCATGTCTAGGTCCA (sugars from the 5' end e3 d14 e3, backbone and methylation of C not given here) | TRUE |
| ISIS 416825: 5-10-5 MOE gapmer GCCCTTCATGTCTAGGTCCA (sugars from the 5' end e5 d10 e5, backbone and methylation of C not given here) | FALSE |
| ISIS 417003: MOE gapmer, nucleobases 1275 to 1318 of SEQ ID NO: 1 (Table 8) (antisense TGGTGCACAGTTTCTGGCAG; MOE gapmer, wing and gap sizes not given here) | TRUE |
| ISIS 416826: 5-10-5 MOE gapmer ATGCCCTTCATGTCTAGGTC (sugars from the 5' end e5 d10 e5, backbone and methylation of C not given here) | TRUE |

---

- Test system: human Factor 11 mRNA
- measurement protocol: Dose-dependent inhibition of human Factor 11 in HepG2 cells, lipofectin 2.34-75 nM (Example 5)
- Format: cell-based
- measurement parameters: 2.34 nM, ~16 hours
- Protocol: Cells were plated at a density of 10,000 cells per well and transfected using lipofectin reagent with 2.34 nM, 4.69 nM, 9.375 nM, 18.75 nM, 37.5 nM, and 75 nM concentrations of antisense oligonucleotide, as specified in Table 11. After a treatment period of approximately 16 hours, RNA was isolated from the cells and human Factor 11 mRNA levels were measured by quantitative real-time PCR. […] Factor 11 mRNA levels were adjusted according to total RNA content, as measured by RIBOGREEN. […]
Classification field. Basis: percent inhibition of human Factor 11 mRNA relative to untreated control cells. Definitions: bin 0 = under 10%, bin 1 = from 10% up to 20%, bin 2 = 20% and over

| substance | label |
| --- | --- |
| 417002 (antisense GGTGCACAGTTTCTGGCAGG; 2-13-5 gapmer chemistry, further chemistry not given here) [compound 417002] | bin 1 |
| 416925 (antisense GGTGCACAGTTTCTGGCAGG; 3-14-3 gapmer chemistry, further chemistry not given here) [compound 416925] | bin 2 |
| 416858 (antisense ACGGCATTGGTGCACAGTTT; 5-10-5 gapmer, further chemistry not given here) [compound 416858] | bin 1 |
| 416826 (antisense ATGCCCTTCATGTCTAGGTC; 5-10-5 gapmer, further chemistry not given here) [compound 416826] | bin 1 |
| 416864 (antisense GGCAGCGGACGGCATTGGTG; 5-10-5 gapmer, further chemistry not given here) [compound 416864] | bin 1 |
| 416838 (antisense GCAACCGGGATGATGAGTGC; 5-10-5 gapmer, further chemistry not given here) [compound 416838] | bin 2 |
| 417003 (antisense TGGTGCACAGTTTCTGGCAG; 2-13-5 gapmer chemistry, further chemistry not given here) [compound 417003] | bin 0 |
| 416892 (antisense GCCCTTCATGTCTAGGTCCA; 3-14-3 chimeric gapmer, further chemistry not given here) [compound 416892] | bin 1 |
| 416850 (antisense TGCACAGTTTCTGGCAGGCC; 5-10-5 gapmer, further chemistry not given here) [compound 416850] | bin 2 |
| 416825 (antisense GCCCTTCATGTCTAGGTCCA; 5-10-5 gapmer, further chemistry not given here) [compound 416825] | bin 0 |
